List of IC50 tested on CK2 kinase (Homo sapiens, UniProt P68400).
Sequence (P68400 whole entry): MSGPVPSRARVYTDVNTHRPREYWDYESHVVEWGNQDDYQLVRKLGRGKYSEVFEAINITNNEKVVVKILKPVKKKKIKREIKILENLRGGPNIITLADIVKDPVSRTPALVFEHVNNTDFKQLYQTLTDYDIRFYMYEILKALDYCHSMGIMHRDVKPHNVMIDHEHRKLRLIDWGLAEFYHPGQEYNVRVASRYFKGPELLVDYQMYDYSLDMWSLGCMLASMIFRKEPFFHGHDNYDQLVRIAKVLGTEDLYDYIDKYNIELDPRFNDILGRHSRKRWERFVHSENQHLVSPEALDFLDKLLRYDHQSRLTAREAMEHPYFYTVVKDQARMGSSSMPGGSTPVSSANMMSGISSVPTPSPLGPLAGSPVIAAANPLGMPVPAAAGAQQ
Provide the reading as a plain figure in nM.

molecule="COC(=O)[C@@H](NC(=O)CNC(=O)COc1ccc2c(C)cc(=O)oc2c1)c1ccccc1 [Compound 7c]" numeric_readout=461

With CK2 kinase (Homo sapiens, UniProt P68400) as the test system, provide measured IC50 for this molecule: COC(=O)[C@H](CC(C)C)NC(=O)COc1ccc2c(C)cc(=O)oc2c1 [Compound 5b]
117

All figures here come from paper PMC11302324.
